Target: NS3 (nonstructural protein 3, protease-helicase) (Hepatitis C virus genotype 1b (con1b), UniProt Q9WMX2 1027-1657)
Sequence (Q9WMX2 1027-1657): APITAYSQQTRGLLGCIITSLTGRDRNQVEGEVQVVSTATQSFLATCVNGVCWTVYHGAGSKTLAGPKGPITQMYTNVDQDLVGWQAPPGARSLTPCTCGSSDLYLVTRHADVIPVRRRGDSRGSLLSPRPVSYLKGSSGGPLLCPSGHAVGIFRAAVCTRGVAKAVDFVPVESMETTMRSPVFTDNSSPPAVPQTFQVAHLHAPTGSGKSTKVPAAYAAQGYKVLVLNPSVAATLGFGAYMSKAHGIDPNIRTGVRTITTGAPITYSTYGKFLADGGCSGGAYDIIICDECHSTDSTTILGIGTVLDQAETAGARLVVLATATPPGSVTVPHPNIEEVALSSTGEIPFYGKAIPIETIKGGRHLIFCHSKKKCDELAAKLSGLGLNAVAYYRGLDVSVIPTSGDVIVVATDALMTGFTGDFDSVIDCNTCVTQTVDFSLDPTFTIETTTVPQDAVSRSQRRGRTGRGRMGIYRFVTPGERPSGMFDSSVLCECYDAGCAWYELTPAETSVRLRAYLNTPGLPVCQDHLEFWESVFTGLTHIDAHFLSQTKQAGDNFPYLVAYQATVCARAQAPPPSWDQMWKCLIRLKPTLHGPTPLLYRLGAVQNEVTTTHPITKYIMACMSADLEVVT
Assay: fluorescence anisotropy; 100 mM KCl; quadratic fit; 25 mM MOPS pH 6.5, 100 mM KCl, 0.1 mM EDTA, 2 mM beta-mercaptoethanol, 0.1 mg/ml BSA, 37 C, 30 min; RNA 2 nM unless stated, folded in 100 mM KCl
Settings: protein: recombinant; label: 3'-6FAM; single-stranded
RECORDED METRIC: Kd (nM)
Give the number; nM is assumed, so skip it.

Return Kd (reported value) for this binder: AAAAAAAAAAAAAAAAAAAA (ssRNA) [A20]
6
